target-of-assay: JAK2 (Homo sapiens (Human), UniProt O60674)
Sequence (O60674 whole entry, species assumed): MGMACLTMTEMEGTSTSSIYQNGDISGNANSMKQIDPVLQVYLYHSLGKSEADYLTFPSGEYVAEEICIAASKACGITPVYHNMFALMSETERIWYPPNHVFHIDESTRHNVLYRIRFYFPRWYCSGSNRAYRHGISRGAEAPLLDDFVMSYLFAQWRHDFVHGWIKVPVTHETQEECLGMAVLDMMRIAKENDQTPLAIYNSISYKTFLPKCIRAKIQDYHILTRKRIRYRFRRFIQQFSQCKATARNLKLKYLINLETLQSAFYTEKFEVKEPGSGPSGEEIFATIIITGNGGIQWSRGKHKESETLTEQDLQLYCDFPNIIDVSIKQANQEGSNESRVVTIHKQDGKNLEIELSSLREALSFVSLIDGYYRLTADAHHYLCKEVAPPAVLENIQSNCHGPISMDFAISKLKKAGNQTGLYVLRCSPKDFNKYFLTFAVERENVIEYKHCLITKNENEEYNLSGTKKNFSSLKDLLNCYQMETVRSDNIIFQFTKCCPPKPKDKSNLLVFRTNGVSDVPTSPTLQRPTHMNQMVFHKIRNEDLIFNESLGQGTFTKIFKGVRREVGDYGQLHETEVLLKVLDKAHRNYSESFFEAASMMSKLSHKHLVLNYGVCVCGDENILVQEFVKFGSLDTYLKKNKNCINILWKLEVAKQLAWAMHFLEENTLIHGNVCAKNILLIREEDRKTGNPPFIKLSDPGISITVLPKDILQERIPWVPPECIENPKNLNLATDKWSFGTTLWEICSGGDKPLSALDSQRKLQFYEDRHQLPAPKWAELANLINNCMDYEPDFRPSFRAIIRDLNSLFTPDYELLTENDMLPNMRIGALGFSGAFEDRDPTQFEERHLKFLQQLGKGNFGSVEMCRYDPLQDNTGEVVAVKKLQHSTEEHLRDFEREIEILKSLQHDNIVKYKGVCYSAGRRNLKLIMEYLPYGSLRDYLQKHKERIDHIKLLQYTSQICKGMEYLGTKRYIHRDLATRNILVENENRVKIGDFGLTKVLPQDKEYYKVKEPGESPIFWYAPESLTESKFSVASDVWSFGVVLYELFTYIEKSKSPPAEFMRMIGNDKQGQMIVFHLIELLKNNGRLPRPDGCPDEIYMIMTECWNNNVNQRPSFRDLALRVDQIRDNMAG
measurement-notes: Biochemical kinase assay (33P-ATP filter-binding), JAK2
condition-set: Table 3a; read-out: IC50 JAK2
pIC50: −log10 of the molar value.
Label Fulfilled for high-side pIC50 (at or above 8) and Not fulfilled for low-side pIC50 (below it).

compound: Cc1cnc(Nc2cc(C#N)c3c(c2)COB3O)nc1N[C@H]1CCCC[C@@H]1C#N (single isomer, unassigned) [Example 012b]
group-label: Not fulfilled

compound: Cc1cnc(Nc2cc(Cl)c3c(c2)COB3O)nc1N[C@H]1CCCC[C@@H]1C#N (single isomer, unassigned) [Example 010b]
group-label: Not fulfilled

compound: Cc1cnc(Nc2cc(Cl)c3c(c2)COB3O)nc1N[C@@H]1CCCOC1 [Example 030a]
group-label: Not fulfilled

compound: N#C[C@@H]1CCCC[C@H]1Nc1nc(Nc2ccc3c(c2)COB3O)ncc1Cl (relative stereo)
group-label: Fulfilled

compound: N#CC1CCOCC1Nc1nc(Nc2cc(F)c3c(c2)COB3O)ncc1Cl (centres unmarked)
group-label: Fulfilled

compound: Cc1cnc(Nc2cc(Cl)c3c(c2)COB3O)nc1NC1CCCC[C@@H]1C#N (single isomer, unassigned) [Example 010a]
group-label: Fulfilled

compound: N#C[C@H]1CCOC[C@@H]1Nc1nc(Nc2cc3c(c(C(F)(F)F)c2)B(O)OC3)ncc1Cl (single isomer, unassigned) [Example 042b]
group-label: Not fulfilled

* * *

target-of-assay: JAK2 (Homo sapiens (Human))
measurement-notes: Biochemical kinase assay (33P-ATP filter-binding), JAK2
condition-set: Table 3a; read-out: IC50 JAK2
Text: Biochemical Kinase Assay Protocol (JAK) Reaction Procedure: • 1. […] Detected kinase activity by filter-binding method.
pIC50: −log10 of the molar value.

compound: Cc1cnc(Nc2cc3c(c(C(F)(F)F)c2)B(O)OC3)nc1N[C@H]1CCCC[C@@H]1C#N (single isomer, unassigned) [Example 011a]
target-of-assay: JAK2 (Homo sapiens (Human))
pIC50: 7.93
//
compound: Cc1cnc(Nc2cc(Cl)c3c(c2)COB3O)nc1NC1CCCC1C#N (racemic) [Example 003]
target-of-assay: JAK2 (Homo sapiens (Human))
pIC50: 7.40
//
compound: Cc1cnc(Nc2cc(C)c3c(c2)COB3O)nc1N[C@@H]1CCCC[C@H]1C#N (relative stereo) [Example 009]
target-of-assay: JAK2 (Homo sapiens (Human))
pIC50: 7.86
//
compound: N#C[C@@H]1CCOC[C@H]1Nc1nc(Nc2cc(Cl)c3c(c2)COB3O)ncc1C(F)(F)F (relative stereo) [Example 049]
target-of-assay: JAK2 (Homo sapiens (Human))
pIC50: 7.88

* * *

In this section, each of the molecules is paired with its reported Dog LM QH.
measurement-notes: Dog LM (liver microsome) assay
Assay type: in vitro ADME
condition-set: Table 3b, comparator compounds; predicted clearance as percent of liver blood flow

molecule: CCC(CC)Nc1nc(Nc2cc(F)c3c(c2)COB3O)ncc1C [Example C003]
qualifying-sign: =
Dog LM QH / %: 41.0
--
molecule: OB1OCc2cc(Nc3ncc(Cl)c(NC4CCCCC4)n3)ccc21 [Example C018]
qualifying-sign: =
Dog LM QH / %: 56.0
--
molecule: OB1OCc2cc(Nc3ncc(C(F)(F)F)c(NC4CCCCC4)n3)ccc21 [Example C020]
qualifying-sign: <
Dog LM QH / %: 19.9
--
molecule: CCC(CC)Nc1nc(Nc2ccc3c(c2)COB3O)ncc1C [Example C001]
qualifying-sign: =
Dog LM QH / %: 73.8
--
molecule: Cc1cnc(Nc2ccc3c(c2)COB3O)nc1NC1CCCC1 [Example C006]
qualifying-sign: >
Dog LM QH / %: 86.6
--
molecule: OB1OCc2cc(Nc3ncc(Cl)c(NC4CCCC4)n3)ccc21 [Example C014]
qualifying-sign: =
Dog LM QH / %: 78.5
--
molecule: Cc1cnc(Nc2cc(Cl)c3c(c2)COB3O)nc1NC1CCCCC1 [Example C012]
qualifying-sign: <
Dog LM QH / %: 19.9
--
molecule: Cc1cnc(Nc2ccc3c(c2)COB3O)nc1NC1CCCCC1 [Example C011]
qualifying-sign: =
Dog LM QH / %: 83.5
--
molecule: OB1OCc2cc(Nc3ncc(Cl)c(NC4CCCC4)n3)cc(F)c21 [Example C015]
qualifying-sign: =
Dog LM QH / %: 67.2
--
molecule: Cc1cc(Nc2ncc(Cl)c(NC3CCCC3)n2)cc2c1B(O)OC2 [Example C016]
qualifying-sign: =
Dog LM QH / %: 54.5
--
molecule: Cc1cnc(Nc2cc(C)c3c(c2)COB3O)nc1NC1CCCC1 [Example C008]
qualifying-sign: =
Dog LM QH / %: 54.3
--
molecule: Cc1cnc(Nc2cc(Cl)c3c(c2)COB3O)nc1NC1CCCC1 [Example C007]
qualifying-sign: =
Dog LM QH / %: 52.1

* * *

measurement-notes: Dog LM (liver microsome) assay
Type: in vitro ADME
condition-set: Table 3a; predicted clearance as percent of liver blood flow, 1 μM, 1 mg/ml microsomal protein
Counter-ions that a name gives are not always drawn.
endpoint-label: Dog LM QH

compound: Cc1cnc(Nc2ccc3c(c2)COB3O)nc1N[C@@H]1COCC[C@H]1C#N (single isomer, unassigned) [Example 026a]
test-result: <19.9%

compound: Cc1cnc(Nc2ccc3c(c2)C(C)(C)OB3O)nc1N[C@@H]1CCCC[C@H]1C#N (relative stereo) [Example 014, hydrochloride]
test-result: 48.7%

compound: Cc1cnc(Nc2cc3c(c(C(F)(F)F)c2)B(O)OC3)nc1N[C@@H]1COCC[C@H]1C#N (single isomer, unassigned) [Example 033b]
test-result: 64.9%

compound: Cc1cnc(Nc2ccc3c(c2)COB3O)nc1N[C@@H]1CCC[C@H]1C#N (relative stereo)
test-result: 39.7%

compound: N#C[C@H]1CCOC[C@@H]1Nc1nc(Nc2cc3c(c(C(F)(F)F)c2)B(O)OC3)ncc1Cl (single isomer, unassigned) [Example 042a]
test-result: <19.9%

compound: Cc1cnc(Nc2cc(C#N)c3c(c2)COB3O)nc1N[C@@H]1CCC[C@H]1C#N (relative stereo)
test-result: <19.9%

compound: N#CC1CCOCC1Nc1nc(Nc2cc(F)c3c(c2)COB3O)ncc1Cl (centres unmarked)
test-result: <19.9%

compound: Cc1cnc(Nc2ccc3c(c2)C=CB(O)O3)nc1N[C@@H]1COCC[C@H]1C#N (relative stereo)
test-result: 43.7%

compound: Cc1cnc(Nc2cc(Cl)c3c(c2)COB3O)nc1N[C@H]1CCCOC1 [Example 030b]
test-result: <19.9%

compound: Cc1cnc(Nc2cc(F)c3c(c2)COB3O)nc1N[C@@H]1COCC[C@H]1C#N (single isomer, unassigned) [Example 029b]
test-result: <19.9%

compound: N#C[C@H]1CCOC[C@@H]1Nc1nc(Nc2cc3c(c(C(F)(F)F)c2)B(O)OC3)ncc1Cl (single isomer, unassigned) [Example 042b]
test-result: <19.9%

compound: N#C[C@@H]1CCC[C@H]1Nc1nc(Nc2ccc3c(c2)COB3O)ncc1Cl (relative stereo)
test-result: <19.9%

compound: Cc1cnc(Nc2cc(Cl)c3c(c2)COB3O)nc1NC1COCCC1C#N (racemic)
test-result: <19.9%

compound: Cc1cnc(Nc2cc(C#N)c3c(c2)COB3O)nc1N[C@H]1CCCC[C@@H]1C#N (single isomer, unassigned) [Example 012a]
test-result: <19.9%

* * *

target-of-assay: JAK1 (Homo sapiens (Human), UniProt P23458)
Sequence (P23458 whole entry, species assumed): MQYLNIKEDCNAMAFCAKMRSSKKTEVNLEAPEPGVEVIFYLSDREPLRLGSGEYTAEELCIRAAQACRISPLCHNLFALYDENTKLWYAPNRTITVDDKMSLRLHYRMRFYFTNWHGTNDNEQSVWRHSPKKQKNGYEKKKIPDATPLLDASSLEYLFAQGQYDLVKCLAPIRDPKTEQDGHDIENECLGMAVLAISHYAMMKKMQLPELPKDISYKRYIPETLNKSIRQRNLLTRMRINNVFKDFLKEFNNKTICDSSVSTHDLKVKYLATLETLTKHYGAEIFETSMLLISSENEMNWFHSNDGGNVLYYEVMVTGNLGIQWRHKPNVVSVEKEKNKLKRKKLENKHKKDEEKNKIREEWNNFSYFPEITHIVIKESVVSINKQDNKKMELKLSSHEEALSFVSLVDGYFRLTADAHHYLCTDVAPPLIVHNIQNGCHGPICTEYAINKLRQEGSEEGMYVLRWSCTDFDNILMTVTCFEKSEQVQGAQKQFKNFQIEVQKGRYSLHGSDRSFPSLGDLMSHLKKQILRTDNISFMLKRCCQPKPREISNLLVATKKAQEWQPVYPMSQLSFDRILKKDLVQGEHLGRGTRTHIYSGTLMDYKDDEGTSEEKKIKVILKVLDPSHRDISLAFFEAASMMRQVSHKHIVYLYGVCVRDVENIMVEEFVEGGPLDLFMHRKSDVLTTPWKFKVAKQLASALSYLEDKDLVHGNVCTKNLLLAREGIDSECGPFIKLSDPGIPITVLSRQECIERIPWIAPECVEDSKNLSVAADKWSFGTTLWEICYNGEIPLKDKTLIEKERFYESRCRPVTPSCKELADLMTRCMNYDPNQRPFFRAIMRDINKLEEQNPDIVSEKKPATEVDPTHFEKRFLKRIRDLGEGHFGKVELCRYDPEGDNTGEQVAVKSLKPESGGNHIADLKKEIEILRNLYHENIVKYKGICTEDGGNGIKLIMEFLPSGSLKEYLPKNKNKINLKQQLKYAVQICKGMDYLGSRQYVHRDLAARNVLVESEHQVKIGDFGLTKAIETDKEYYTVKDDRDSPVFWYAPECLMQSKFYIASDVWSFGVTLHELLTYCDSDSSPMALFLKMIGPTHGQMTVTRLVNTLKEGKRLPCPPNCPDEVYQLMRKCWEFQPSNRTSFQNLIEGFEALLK
measurement-notes: Biochemical kinase assay (33P-ATP filter-binding), JAK1
condition-set: Table 3a; read-out: IC50 JAK1
pIC50: −log10 of the molar value.
In this section, each of the compounds is paired with its reported pIC50.
endpoint-label: pIC50

compound: Cc1cnc(Nc2cc(C#N)c3c(c2)COB3O)nc1N[C@@H]1CCC[C@H]1C#N (relative stereo) [Example 018]
test-result: 9.30
//
compound: Cc1cnc(Nc2cc(C#N)c3c(c2)COB3O)nc1N[C@H]1CCCC[C@@H]1C#N (single isomer, unassigned) [Example 012b]
test-result: 8.09
//
compound: Cc1cnc(Nc2ccc3c(c2)C(C)OB3O)nc1NC1COCCC1C#N (stereo not shown) [Example 028]
test-result: 9.30
//
compound: Cc1cnc(Nc2cc(Cl)c3c(c2)COB3O)nc1N[C@@H]1CCCOC1 [Example 030a]
test-result: 7.29

* * *

target-of-assay: JAK2 (Homo sapiens (Human))
measurement-notes: Biochemical kinase assay (33P-ATP filter-binding), JAK2
condition-set: Table 3a; read-out: IC50 JAK2
Description: Biochemical Kinase Assay Protocol (JAK) Reaction Procedure: • 1. […] Detected kinase activity by filter-binding method.
Response field label takes Met when IC50 is strictly below 20 nM and Not met in all other cases.

compound: Cc1cnc(Nc2cc3c(c(C(F)(F)F)c2)OB(O)C=C3)nc1N[C@@H]1COCC[C@H]1C#N (relative stereo)
group-label: Met

compound: Cc1cnc(Nc2ccc3c(c2)OB(O)C=C3)nc1N[C@@H]1COCC[C@H]1C#N (relative stereo)
group-label: Not met

compound: Cc1cnc(Nc2cc(Cl)c3c(c2)COB3O)nc1N[C@@H]1CCC[C@H]1C#N (single isomer, unassigned) [Example 003a]
group-label: Met

compound: Cc1cnc(Nc2ccc3c(c2)C(C(C)C)=CB(O)O3)nc1N[C@H]1COCC[C@@H]1C#N (single isomer, unassigned) [Example 039a]
group-label: Met

compound: Cc1cnc(Nc2cc3c(c(C(F)(F)F)c2)B(O)OC3)nc1N[C@@H]1CCC[C@H]1C#N (relative stereo)
group-label: Not met

compound: Cc1cnc(Nc2cc(F)c3c(c2)COB3O)nc1N[C@@H]1COCC[C@H]1C#N (single isomer, unassigned) [Example 029b]
group-label: Not met

compound: COc1cc(Nc2ncc(C)c(N[C@H]3COCC[C@@H]3C#N)n2)cc2c1B(O)OC2 (single isomer, unassigned) [Example 044b]
group-label: Not met

compound: N#C[C@@H]1CCOC[C@H]1Nc1nc(Nc2cc(Cl)c3c(c2)COB3O)ncc1F (relative stereo)
group-label: Not met

compound: Cc1cnc(Nc2cc3c(c(C(F)(F)F)c2)B(O)OC3)nc1N[C@H]1CCCC[C@@H]1C#N (single isomer, unassigned) [Example 011b]
group-label: Not met

compound: COc1cc(Nc2ncc(C)c(N[C@H]3COCC[C@@H]3C#N)n2)cc2c1B(O)OC2 (single isomer, unassigned) [Example 044a]
group-label: Met

compound: Cc1cnc(Nc2cc(F)c3c(c2)C=CB(O)O3)nc1N[C@@H]1COCC[C@H]1C#N (single isomer, unassigned) [Example 036a]
group-label: Met

compound: Cc1cnc(Nc2cc3c(c(C(F)(F)F)c2)B(O)OC3)nc1N[C@@H]1COCC[C@H]1C#N (single isomer, unassigned) [Example 033b]
group-label: Not met

compound: Cc1cnc(Nc2ccc3c(c2)COB3O)nc1NC1COCCC1C#N (racemic)
group-label: Met
